# System: MOLT-4 leukemia
# procedure.details: NCI tumour cell line growth inhibition, 48 h; in the data active = GI50 below about 0.43 µM; inactive = the rest
Permitted responses: active, inactive

Previously resolved entries follow.
COc1ccc2nc3cc(Cl)ccc3c(NCCN)c2c1 | inactive
O=C1NN(C2=NNC3(C(=O)N2)c2ccccc2-c2ccccc23)C(c2ccccc2)=N/C1=C/c1ccc(O)cc1 | inactive
Cc1ccc(NC(=O)c2sc3nc(C)c(C(O)c4ccccc4)cc3c2N)cc1 (stereo not given) | inactive
COc1cc2c3c(n(C)c(=O)c2cc1OC)-c1cc2c(cc1/C3=C\CNCCCN)OCO2 | active
N#Cc1cccc(NC(=O)c2cc(-c3ccc(F)cc3F)ccc2O)c1 | inactive
CCN(CC)CCCC(C)Nc1cnc(C(=O)Nc2cccc3ccc(OC)nc23)cn1 (stereo not given) | inactive
COc1cc(/C=C2\CCCC3=C2NC(C)=NC3c2cc(OC)c(OC)c(OC)c2)cc(OC)c1OC (stereo not given) | inactive
C/C=C1/C(=C/c2[nH]c(/C=c3\[nH]/c(=C/C4=NC(=O)C(CC)=C4C)c(C)c3CCC(=O)O)c(CCC(=O)O)c2C)NC(=O)C1C (stereo not given) | inactive
Cc1ccc(NC(=O)NCCCOc2ccc(N3C(N)=NC(N)=NC3(C)C)cc2Cl)cc1S(=O)(=O)F | inactive

Can you look up the reported call for "O=C(/C(=C/c1cccc([N+](=O)[O-])c1)c1ccccc1)c1ccccc1" for me?
inactive
